- target-system: PIM-1 (Homo sapiens (Human))
- Sequence (P11309 whole entry, species assumed): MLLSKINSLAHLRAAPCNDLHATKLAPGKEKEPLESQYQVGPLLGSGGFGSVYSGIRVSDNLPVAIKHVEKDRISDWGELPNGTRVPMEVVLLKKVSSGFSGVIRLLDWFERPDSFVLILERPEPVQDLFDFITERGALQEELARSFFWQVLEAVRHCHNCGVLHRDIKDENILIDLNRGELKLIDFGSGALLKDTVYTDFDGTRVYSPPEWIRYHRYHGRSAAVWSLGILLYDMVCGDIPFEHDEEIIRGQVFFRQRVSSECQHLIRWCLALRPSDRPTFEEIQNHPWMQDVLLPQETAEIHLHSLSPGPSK
- assay-notes: PIM-1 Enzyme Assay
- Type: biochemical
Structures can show the parent of a compound that is named as a salt.
measurement-label: IC50 (nM)
Just the number in nM, nothing appended.

CC(C)(CN)COc1cccc2ccc(-c3nnc4ccc(Br)cn34)nc12 [Example 63, dihydrochloride]	0.65
CN1CCC(F)(COc2cccc3ccc(-c4nnc5ccccn45)nc23)CC1 [Example 84, dihydrochloride]	2
CC(C)C1(COc2cccc3ccc(-c4nnc5ccccn45)nc23)CCNCC1 [Example 70, dihydrochloride]	0.75
COC1(COc2cccc3ccc(-c4nnc5ccccn45)nc23)CCNCC1 [Example 73, bis(trifluoroacetate)]	0.96
Fc1cc(OCC2(F)CNC2)c2nc(-c3nnc4ccccn34)ccc2c1 [Example 108, Dihydrochloride]	7.3
CC(C)(CN)COc1c(Br)ccc2ccc(-c3nnc4ccccn34)nc12 [Example 58, dihydrochloride]	10

# next compound below
Entry Fc1ccc2nnc(-c3ccc4cccc(O[C@@H]5CCNCC[C@H]5F)c4n3)n2c1 (relative stereo) [Example 102, dihydrochloride] has what IC50? 4.9
